Test system: HCT116 + Chr3
ASSAY METHOD TEXT: Cell viability assay (resazurin)
Format: cell-based
CONDITION CONTEXT: Homo sapiens, HCT-116, 120 h, Cancer, Colorectal Carcinoma, five day incubation
MEASURED ATTRIBUTE: pEC50
Value format note: pEC50 is -log10 of concentration (mol/L); just state the number.

Reference set (2 entries):
{"SMILES ENTRY": "O=C(Nc1ccc(Cl)c(Cl)c1)N1CCC(n2c(=O)[nH]c3c(-c4ccc(CO)nc4)cccc32)CC1", "pEC50": 4.77}
{"SMILES ENTRY": "O=C(Nc1ccc(I)cc1)N1CCC(n2c(=O)[nH]c3c(Br)cccc32)CC1", "pEC50": 4.68}

-- ask // lookup pEC50 for Cc1cc(NC(=O)N2CCC(n3c(=O)[nH]c4c(Br)cccc43)CC2)ccc1I
-- reply 4.70

###

Below are pIC50 values recorded for OGG1 (Homo sapiens (Human)).
Value format note: pIC50 is -log10 of concentration (mol/L); just state the number.

Reference set (6 entries):
{"COMPOUND": "COC(=O)c1cccc2c1[nH]c(=O)n2[C@H]1CC[C@@H](C(=O)Nc2ccc(C)c(OC)c2)CC1", "pIC50": 8.23}
{"COMPOUND": "Cc1cc(NC(=O)[C@H]2CC[C@@H](n3c(=O)[nH]c4c(Br)cccc43)CC2)cnc1Cl", "pIC50": 6.47}
{"COMPOUND": "O=c1[nH]c2c(Br)cccc2n1[C@H]1CC[C@@H](C(=O)Nc2ccc3c(c2)OCCO3)CC1", "pIC50": 7.41}
{"COMPOUND": "COc1ccc(NC(=O)[C@H]2CC[C@@H](n3c(=O)[nH]c4ccc(F)cc43)CC2)cc1C", "pIC50": 6.23}
{"COMPOUND": "COc1cc(NC(=O)[C@H]2CC[C@@H](n3c(=O)[nH]c4c(C(=O)NCc5ncccn5)cccc43)CC2)ccc1C", "pIC50": 8.54}
{"COMPOUND": "CCc1ccc(NC(=O)N2CCC(n3c(=O)[nH]c4c(Br)cccc43)CC2)cc1", "pIC50": 5.62}

Now consider the entry below.
-- ask Item COC(=O)NC1CCN(c2cccc3c2[nH]c(=O)n3[C@H]2CC[C@@H](C(=O)Nc3ccc(C)c(OC)c3)CC2)C1 (stereo partly shown) with OGG1 (Homo sapiens (Human)) - pIC50?
-- reply 7.42

###

SYSTEM UNDER TEST: OGG1 (Homo sapiens (Human), UniProt O15527)
Sequence (O15527 whole entry): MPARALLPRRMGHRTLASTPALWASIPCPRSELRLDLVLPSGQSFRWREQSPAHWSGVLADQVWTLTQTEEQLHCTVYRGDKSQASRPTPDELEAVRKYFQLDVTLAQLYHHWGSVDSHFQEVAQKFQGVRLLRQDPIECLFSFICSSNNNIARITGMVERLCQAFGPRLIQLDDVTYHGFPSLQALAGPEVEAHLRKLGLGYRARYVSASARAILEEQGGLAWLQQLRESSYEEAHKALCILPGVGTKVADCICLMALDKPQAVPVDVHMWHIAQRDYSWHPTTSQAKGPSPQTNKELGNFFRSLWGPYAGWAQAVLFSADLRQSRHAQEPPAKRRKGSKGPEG
# strict inequality: IC50 < 100 nM yields criterion met, everything else yields criterion not met

{"COMPOUND": "COc1cc(NC(=O)N2CCC(n3c(=O)[nH]c4c(-c5cccnc5)cccc43)CC2)ccc1C [Example 95]", "SYSTEM UNDER TEST": "OGG1 (Homo sapiens (Human), UniProt O15527)", "GROUP": "criterion not met"}
{"COMPOUND": "O=C(Nc1ccc(Cl)c(F)c1)N1C2CCC1CC(n1c(=O)[nH]c3c(-c4ccc(CO)nc4)cccc31)C2 (stereo not shown) [Example 94]", "SYSTEM UNDER TEST": "OGG1 (Homo sapiens (Human), UniProt O15527)", "GROUP": "criterion not met"}
{"COMPOUND": "CN(C)CCNC(=O)c1cnn(-c2cccc3c2[nH]c(=O)n3C2CCN(C(=O)Nc3ccc(I)cc3)CC2)c1 [Example 89, 2,2,2-trifluoroacetate]", "SYSTEM UNDER TEST": "OGG1 (Homo sapiens (Human), UniProt O15527)", "GROUP": "criterion met"}
{"COMPOUND": "COc1cc(NC(=O)[C@H]2CC[C@@H](n3c(=O)[nH]c4c(N(C)CCN(C)C)cccc43)CC2)ccc1C [Example 229]", "SYSTEM UNDER TEST": "OGG1 (Homo sapiens (Human), UniProt O15527)", "GROUP": "criterion met"}
{"COMPOUND": "O=C(O)c1ccc(-c2cccc3c2[nH]c(=O)n3C2CCN(C(=O)Nc3ccc(Cl)c(Cl)c3)CC2)cc1 [Example 35]", "SYSTEM UNDER TEST": "OGG1 (Homo sapiens (Human), UniProt O15527)", "GROUP": "criterion not met"}

-- ask Lab note: IC50 threshold 100 nM. Does this compound come in strictly under it? Cc1cc(NC(=O)N2C3CCC2CC(n2c(=O)[nH]c4c(Br)cccc42)C3)ccc1I (stereo not shown) [Example 84]
-- reply criterion met

-- ask Lab note: IC50 threshold 100 nM. Does this compound come in strictly under it? O=c1[nH]c2c(Br)cccc2n1[C@H]1CC[C@@H](C(=O)Nc2ccc(F)c(Cl)c2)CC1 [Example 162]
-- reply criterion not met

###

Test system: U2OS
ASSAY METHOD TEXT: Cell viability assay (resazurin)
Type: cell-based
CONDITION CONTEXT: Homo sapiens, 120 h, Cancer, Osteosarcoma, five day incubation
MEASURED ATTRIBUTE: pEC50
Value format note: pEC50 is -log10 of concentration (mol/L); just state the number.

Reference set (2 entries):
{"SMILES ENTRY": "O=C(Nc1ccc(Cl)c(Cl)c1)N1CCC(n2c(=O)[nH]c3c(-c4ccc(CO)nc4)cccc32)CC1", "SYSTEM UNDER TEST": "U2OS", "ASSAY RESULT": 4.80}
{"SMILES ENTRY": "Cc1cc(NC(=O)N2CCC(n3c(=O)[nH]c4c(Br)cccc43)CC2)ccc1I", "SYSTEM UNDER TEST": "U2OS", "ASSAY RESULT": 4.60}

Now consider the entry below.
-- ask // lookup pEC50 for O=C(Nc1ccc(I)cc1)N1CCC(n2c(=O)[nH]c3c(Br)cccc32)CC1
-- reply 4.70

###

SYSTEM UNDER TEST: OGG1 (Homo sapiens (Human))
pIC50: −log10 of the molar value.
Assign yes (1) whenever pIC50 does not fall below 7; assign no (0) whenever it does.

-- ask Check this compound for pIC50 at or above 7: COc1cc(NC(=O)[C@H]2CC[C@@H](n3c(=O)[nH]c4c(OCCC(C)C)cccc43)CC2)ccc1C
-- reply no (0)

-- ask Check this compound for pIC50 at or above 7: O=c1[nH]c2c(Br)cccc2n1[C@H]1CC[C@@H](C(=O)Nc2ccc(O)c(Cl)c2)CC1
-- reply yes (1)

-- ask Check this compound for pIC50 at or above 7: COc1cc(NC(=O)[C@H]2CC[C@@H](n3c(=O)[nH]c4c(NC(=O)c5cnco5)cccc43)CC2)ccc1C
-- reply yes (1)

-- ask Check this compound for pIC50 at or above 7: COc1cc(NC(=O)[C@H]2CC[C@@H](n3c(=O)[nH]c4c(C(=O)NCC(O)CO)cccc43)CC2)ccc1C (stereo partly shown)
-- reply yes (1)

-- ask Check this compound for pIC50 at or above 7: COc1cc(NC(=O)N2CCC(n3c(=O)[nH]c4c(-c5ccc(CO)nc5)cccc43)CC2)ccc1Cl
-- reply no (0)

-- ask Check this compound for pIC50 at or above 7: COc1cc(NC(=O)[C@H]2CC[C@@H](n3c(=O)[nH]c4c(NC(=O)CN(C)C)cccc43)CC2)ccc1C
-- reply yes (1)

###

Recorded pEC50, one value per entry.
Test system: MEF Ogg1 (−/−)
ASSAY METHOD TEXT: Cell viability assay (resazurin)
Assay type: cell-based
CONDITION CONTEXT: 120 h, Normal, mouse embryonic fibroblast, five day incubation
Value format note: pEC50 is -log10 of concentration (mol/L); just state the number.

Reference set (2 entries):
{"COMPOUND": "Cc1cc(NC(=O)N2CCC(n3c(=O)[nH]c4c(Br)cccc43)CC2)ccc1I [Example 50]", "ASSAY RESULT": 4.47}
{"COMPOUND": "O=C(Nc1ccc(I)cc1)N1CCC(n2c(=O)[nH]c3c(Br)cccc32)CC1 [Example 13]", "ASSAY RESULT": 4.32}

Now consider the entry below.
-- ask // lookup pEC50 for O=C(Nc1ccc(Cl)c(Cl)c1)N1CCC(n2c(=O)[nH]c3c(-c4ccc(CO)nc4)cccc32)CC1 [Example 28]
-- reply 4.34

###

SYSTEM UNDER TEST: OGG1 (Homo sapiens (Human))
# strict inequality: IC50 < 0.2 µM yields true, everything else yields false

{"MOLECULE": "O=C(Nc1ccc(I)cc1)N1CCC(n2c(=O)[nH]c3c(-n4cccn4)cccc32)CC1", "SYSTEM UNDER TEST": "OGG1 (Homo sapiens (Human))", "GROUP": "false"}

-- ask Lab note: IC50 threshold 0.2 µM. Does this molecule come in strictly under it? COc1ccc(NC(=O)[C@H]2CC[C@@H](n3c(=O)[nH]c4c(Br)cccc43)CC2)c(F)c1F
-- reply false

-- ask Lab note: IC50 threshold 0.2 µM. Does this molecule come in strictly under it? COc1ccc2c(c1)[nH]c(=O)n2C1CCN(C(=O)Nc2ccc(OC)c(Cl)c2)CC1
-- reply false

-- ask Lab note: IC50 threshold 0.2 µM. Does this molecule come in strictly under it? Cn1ncc2cc(NC(=O)[C@H]3CC[C@@H](n4c(=O)[nH]c5c(Br)cccc54)CC3)ccc21
-- reply false

-- ask Lab note: IC50 threshold 0.2 µM. Does this molecule come in strictly under it? COc1ncc(NC(=O)[C@H]2CC[C@@H](n3c(=O)[nH]c4c(Br)cccc43)CC2)cc1Cl
-- reply true

-- ask Lab note: IC50 threshold 0.2 µM. Does this molecule come in strictly under it? COc1cc(NC(=O)[C@H]2CC[C@@H](n3c(=O)[nH]c4c(C(=O)NCC5CCCO5)cccc43)CC2)ccc1C (stereo partly shown)
-- reply true

-- ask Lab note: IC50 threshold 0.2 µM. Does this molecule come in strictly under it? O=c1[nH]c2c(Br)cccc2n1[C@H]1CC[C@@H](C(=O)Nc2ccc(Cl)c(Cl)c2)CC1
-- reply false

From: patent US11970474B2
